EC50 values by entry
Target: Streptokinase A (Streptococcus pyogenes serotype M1, UniProt P10520)
Sequence (P10520 whole entry): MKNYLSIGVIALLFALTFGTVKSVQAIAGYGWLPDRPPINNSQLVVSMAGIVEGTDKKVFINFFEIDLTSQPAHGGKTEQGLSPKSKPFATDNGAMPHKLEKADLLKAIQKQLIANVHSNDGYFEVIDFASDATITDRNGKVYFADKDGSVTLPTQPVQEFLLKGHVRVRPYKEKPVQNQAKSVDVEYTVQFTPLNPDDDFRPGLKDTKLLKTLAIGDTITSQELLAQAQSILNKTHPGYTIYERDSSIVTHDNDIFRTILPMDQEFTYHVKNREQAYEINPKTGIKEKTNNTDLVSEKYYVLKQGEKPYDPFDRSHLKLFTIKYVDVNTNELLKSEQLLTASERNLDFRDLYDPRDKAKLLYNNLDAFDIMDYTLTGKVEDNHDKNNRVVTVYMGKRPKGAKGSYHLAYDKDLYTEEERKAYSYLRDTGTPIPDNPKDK
Experiment: S. pyogenes streptokinase expression inhibitors, potency, dose response, plasminogen activation absorbance, OD405 (AID 1914);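 further: secreted streptokinase activity via plasminogen activation per viability signal from cell pellet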
Type: functional, Streptococcus pyogenes M1 GAS
Activity calls are given as the source filed them. No stated cut-off is given here; in the data, actives have a measured EC50 and inactives only a lower limit.

These recorded examples may help you get a feel for the data.
INSERT INTO assay_data (smiles_code, result) VALUES
  ('Fc1cccc2sc(Nc3nc4cc5c(cc4s3)OCO5)nc12', '> 150 µM (not active)'),
  ('CC(C)(C)c1ccc(S(=O)(=O)N2CCC(c3nc4cc(Cl)ccc4[nH]3)CC2)cc1', '4.13 µM (active)'),
  ('Cc1c(C(=O)N/N=C/c2ccc(Cl)cc2)[nH]c2ccc(Cl)cc12', '> 150 µM (not active)');

Then this compound:
Notebook: pull reported EC50 for Streptokinase A (Streptococcus pyogenes serotype M1, UniProt P10520), entry `NCCCn1c(C(=O)c2cc(Cl)c(N)c(Cl)c2)c2ccc([N+](=O)[O-])cc2[n+]1[O-]`
> 150 µM (not active)
